- Test system: Staphylococcus aureus
- testProtocol: Antibacterial activity against methicillin-resistant Staphylococcus aureus N315 measured by Muller-Hinton broth based microdilution assay
- Assay type: functional
outcomeMeasure: MIC (µg/mL)
Express it in µg/mL; write the number only.

Use these answered entries as a reference point.
CCCCCCCCCCCCCCCCn1cc(/C=N/Nc2ccc3c4c(cccc24)C(=O)N(C(CO)CO)C3=O)c2ccccc21 | 64
O=C1c2cccc3c(N/N=C/c4cc(Cl)ccc4O)ccc(c23)C(=O)N1C(CO)CO | 1

As a next step, examine the compound that follows.
For the compound "O=C1c2cccc3c(N/N=C/c4ccccc4)ccc(c23)C(=O)N1C(CO)CO" , what MIC is on record? 64

====

Measured MIC by item
- Tested on: Escherichia coli
- testProtocol: Antibacterial activity against Escherichia coli ATCC 25922 measured by Muller-Hinton broth based microdilution assay
- Assay type: functional
Lab book: enter the figure in µg/mL, no units written.

Use the examples below as a reference point.
C#CCn1cc(/C=N/Nc2ccc3c4c(cccc24)C(=O)N(C(CO)CO)C3=O)c2ccccc21 | 16
O=C1c2cccc3c(N/N=C/c4ccc5ccccc5n4)ccc(c23)C(=O)N1C(CO)CO | 64
O=C1c2cccc3c(N/N=C/c4ccc(C(F)(F)F)cc4)ccc(c23)C(=O)N1C(CO)CO | 32
O=C1c2cccc3c(N/N=C/c4ccc(O)c(Br)c4)ccc(c23)C(=O)N1C(CO)CO | 32

# input compound: "CCn1cc(/C=N/Nc2ccc3c4c(cccc24)C(=O)N(C(CO)CO)C3=O)c2ccccc21" ; wanted: its MIC 32

Please report the recorded MIC for "O=C1c2cccc3c(N/N=C/c4ccccc4O)ccc(c23)C(=O)N1C(CO)CO" . 32

Look at this compound and give its reported MIC. "COc1cc(/C=N/Nc2ccc3c4c(cccc24)C(=O)N(C(CO)CO)C3=O)ccc1O" 16

Fill in: MIC of "CCCCCCCCCCCCCCCCn1cc(/C=N/Nc2ccc3c4c(cccc24)C(=O)N(C(CO)CO)C3=O)c2ccccc21" is ___ 64

Reported MIC for "O=C1c2cccc3c(N/N=C/c4cc(Cl)ccc4O)ccc(c23)C(=O)N1C(CO)CO" : what is it? 32

If you can, please state the reported MIC value of "CCn1c2ccccc2c2cc(/C=N/Nc3ccc4c5c(cccc35)C(=O)N(C(CO)CO)C4=O)ccc21" . 128

MIC for "O=C1c2cccc3c(N/N=C/c4ccc(Cl)cc4)ccc(c23)C(=O)N1C(CO)CO" ? 64

MIC for "O=C1c2cccc3c(N/N=C/c4ccccc4)ccc(c23)C(=O)N1C(CO)CO" ? 64

Field request: MIC | item: "O=C1c2cccc3c(N/N=C/c4ccco4)ccc(c23)C(=O)N1C(CO)CO" 64

Entry "O=C1c2cccc3c(N/N=C/c4ccc([N+](=O)[O-])cc4)ccc(c23)C(=O)N1C(CO)CO" has what MIC? 32

Could you tell me which MIC is on file for "O=C1c2cccc3c(N/N=C/c4ncc[nH]4)ccc(c23)C(=O)N1C(CO)CO" ? 64

Give its MIC value. Item: "CCOC(=O)Cn1cc(/C=N/Nc2ccc3c4c(cccc24)C(=O)N(C(CO)CO)C3=O)c2ccccc21" 32

====

# key: entry, value: MIC
- System: Escherichia coli
- testProtocol: Antibacterial activity against Escherichia coli ATCC 25922 measured by Muller-Hinton broth based microdilution assay
- Type: functional

A selection of reference data follows.
C=CCn1cc(/C=N/Nc2ccc3c4c(cccc24)C(=O)N(C(CO)CO)C3=O)c2ccccc21 | 16 µg/mL
CCCCc1nc(Cl)c(/C=N/Nc2ccc3c4c(cccc24)C(=O)N(C(CO)CO)C3=O)[nH]1 | 32 µg/mL
O=C1c2cccc3c(N/N=C/c4cccc(Cl)c4)ccc(c23)C(=O)N1C(CO)CO | 32 µg/mL
O=C1c2cccc3c(N/N=C/c4ccc(F)cc4F)ccc(c23)C(=O)N1C(CO)CO | 256 µg/mL

Return reported MIC; argument: "O=C1c2cccc3c(N/N=C/c4ccccc4F)ccc(c23)C(=O)N1C(CO)CO" 32 µg/mL

Which MIC is reported for this compound? "O=C1c2cccc3c(N/N=C/c4ccc(O)cc4O)ccc(c23)C(=O)N1C(CO)CO" 32 µg/mL

Query (compound): "O=C1c2cccc3c(N/N=C/c4ccc(O)c([N+](=O)[O-])c4)ccc(c23)C(=O)N1C(CO)CO" ; field requested: MIC 32 µg/mL

Any idea what its MIC is? The compound is "O=C(Cn1cc(/C=N/Nc2ccc3c4c(cccc24)C(=O)N(C(CO)CO)C3=O)c2ccccc21)N1CCOCC1" 256 µg/mL

Reported MIC, compound CCn1cc(C(=O)O)c(=O)c2cc(F)c(N3CCNCC3)cc21 [NORFLOXACIN] : ____ 4 µg/mL
